From: paper PMC12621202

Exercise: state measured half-life for each of the compounds provided.
- ASSAY COMMENT: Pharmacokinetics in CD-1 mice
- Assay type: in vivo
- CONDITION LABEL: male, mouse, plasma, 15 mg/kg PO (n=3), read-out: T1/2 (PO) (converted)
Give the number; min is assumed, so skip it.

[in] Provide one value: measured half-life of [2H]C([2H])([2H])N(C(=O)Oc1c(N2CCN(CC(O)CNC)C2=O)cc(C(F)(F)F)cc1C(F)(F)F)c1ccc(F)cc1 (stereo not drawn) [RTx-283]
[out] 269

[in] For the compound [2H]C([2H])([2H])N(C(=O)Oc1c(N2CCN(CC(O)CN(C)C)C2=O)cc(C(F)(F)F)cc1C(F)(F)F)c1ccc(F)cc1 (stereo not drawn) [RTx-284] , give its measured half-life value.
[out] 146

[in] Identify half-life associated with the compound CN(C)CC(O)CN1CCN(c2cc(C(F)(F)F)cc(C(F)(F)F)c2OC(=O)N(C)c2ccc(F)cc2)C1=O (stereo not drawn) [RTx-182]
[out] 142

* * *

- ASSAY COMMENT: LogP
- Assay type: physicochemical
- CONDITION LABEL: method not described
ASSAY METRIC: logP

[in] Hello, please tell me recorded logP for this one: CNCC(O)CN1CCN(c2cc(C(F)(F)F)cc(C(F)(F)F)c2OC(=O)N(C)c2ccc(F)cc2)C1=O (stereo not shown)
[out] 3.3

[in] Consider the molecule [2H]C([2H])([2H])N(C(=O)Oc1c(N2CCN(CC(O)CN(C)C)C2=O)cc(C(F)(F)F)cc1C(F)(F)F)c1ccc(F)cc1 (stereo not shown) and give its recorded logP.
[out] 3.7

[in] For the molecule CN(C)CC(O)CN1CCN(c2cc(C(F)(F)F)cc(C(F)(F)F)c2OC(=O)N(C)c2ccc(F)cc2)C1=O (stereo not shown) , give its measured logP value.
[out] 3.7

[in] Check the records and state logP for [2H]C([2H])([2H])N(C(=O)Oc1c(N2CCN(CC(O)CNC)C2=O)cc(C(F)(F)F)cc1C(F)(F)F)c1ccc(F)cc1 (stereo not shown)
[out] 3.3

* * *

- ASSAY COMMENT: Hepatocyte stability
- Format: in vitro ADME
- CONDITION LABEL: cryopreserved hepatocytes; mouse (CD1, male) hepatocytes; read-out: T1/2 mouse hepatocytes
ASSAY METRIC: half-life at 1 μM (min)
Report the value in min with no unit label.

[in] Return the recorded half-life at 1 μM value; entry: "[2H]C([2H])([2H])N(C(=O)Oc1c(N2CCN(C[C@H](O)CNC)C2=O)cc(C(F)(F)F)cc1C(F)(F)F)c1ccc(F)cc1"
[out] 68.7

[in] Give reported half-life at 1 μM value for [2H]C([2H])([2H])N(C(=O)Oc1c(N2CCN(CC(O)CN(C)C)C2=O)cc(C(F)(F)F)cc1C(F)(F)F)c1ccc(F)cc1 (stereo not shown)
[out] 19.2

[in] For the compound "[2H]C([2H])([2H])N(C(=O)Oc1c(N2CCN(C[C@H](O)CN(C)C)C2=O)cc(C(F)(F)F)cc1C(F)(F)F)c1ccc(F)cc1" , give its measured half-life at 1 μM value.
[out] 24.7

[in] Consider the compound [2H]C([2H])([2H])N(C(=O)Oc1c(N2CCN(CC(O)CNC)C2=O)cc(C(F)(F)F)cc1C(F)(F)F)c1ccc(F)cc1 (stereo not shown) and give its recorded half-life at 1 μM.
[out] 48.8
